meta.source: patent US12377084B2

Record type: pIC50 measurement. Applies to: Purified ERAP1(37-941)-10 His (ERAP1) (Homo sapiens, UniProt Q9NZ08)
pIC50: −log10 of the molar value. Counter-ions that a name gives are not always drawn.

Some solved entries appear below for comparison.
| MOLECULE | ASSAYED SYSTEM | pIC50 |
| --- | --- | --- |
| CCc1ccc(C(=O)O)cc1S(=O)(=O)Nc1cc(C(F)(F)F)ccc1C1CCCN1C (stereo not drawn) [Example 6] | Purified ERAP1(37-941)-10 His (ERAP1) (Homo sapiens, UniProt Q9NZ08) | 6.30 to 7.00 |
| CCc1ccc(C(=O)O)cc1S(=O)(=O)Nc1cc(C#N)ccc1C1CCCCC1 [Example 13] | Purified ERAP1(37-941)-10 His (ERAP1) (Homo sapiens, UniProt Q9NZ08) | > 7.00 |
| CS(=O)(=O)c1cc(NS(=O)(=O)c2cc(C(=O)O)ccc2C2CC2)c(C2CCCCN2)cc1Cl (stereo not drawn) [Example 27, Hydrochloride] | Purified ERAP1(37-941)-10 His (ERAP1) (Homo sapiens, UniProt Q9NZ08) | > 7.00 |
| CCc1ccc(C(=O)O)cc1S(=O)(=O)Nc1cc(C(F)(F)F)ccc1C1CCCCN1C (stereo not drawn) [Example 10] | Purified ERAP1(37-941)-10 His (ERAP1) (Homo sapiens, UniProt Q9NZ08) | > 7.00 |
| COc1ccc(C(=O)O)cc1S(=O)(=O)Nc1cc(C(F)(F)F)ccc1C1CCCNC1 (stereo not drawn) [Example 2, Hydrochloride] | Purified ERAP1(37-941)-10 His (ERAP1) (Homo sapiens, UniProt Q9NZ08) | 6.30 to 7.00 |

Here N#Cc1cc(NS(=O)(=O)c2cc(C(=O)O)ccc2C2CC2)c(C2CCCCN2)cc1F (stereo not drawn) [Example 21] was tested on Purified ERAP1(37-941)-10 His (ERAP1) (Homo sapiens, UniProt Q9NZ08), and its pIC50 came to > 7.00
